- measured.target: ZIKV envelope glycoprotein (E) of strain FLR (Colombia 2015) (Zika virus)
- assay: cell-based or functional assay
recorded.endpoint: neutralization IC50, Vero cells (pM)
Please reply with the bare figure in pM and do not write the unit itself.

Find the recorded neutralization IC50, Vero cells belonging to H4H25592P (antibody, V domains shown) VH: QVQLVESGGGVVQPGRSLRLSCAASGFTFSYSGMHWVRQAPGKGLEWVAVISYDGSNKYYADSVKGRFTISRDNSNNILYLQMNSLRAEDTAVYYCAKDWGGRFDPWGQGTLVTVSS VL: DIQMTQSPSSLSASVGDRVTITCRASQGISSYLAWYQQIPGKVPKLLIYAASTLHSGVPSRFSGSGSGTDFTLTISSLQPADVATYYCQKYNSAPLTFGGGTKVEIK and report it.
553
